Settings: cell viability/%
Where a SMILES comes first, the peptide text is derived from it. [ ]: non-standard residue; d: D form. The star is where a group is joined. NHCH2CH2OH = OCCN*; For = O=C*
Entries and their viability values follow.
Kindly provide the numeric value in % only, without the unit symbol.

# compound, unit descriptor, readout number
data = [
    ("CC(C)C[C@@H](NC(=O)[C@H](C)NC(=O)CNC(=O)[C@@H](NC=O)C(C)C)C(=O)N[C@@H](C)C(=O)N[C@@H](C(=O)N[C@H](C(=O)N[C@@H](C(=O)N[C@@H](Cc1c[nH]c2ccccc12)C(=O)N[C@H](CC(C)C)C(=O)N[C@@H](Cc1c[nH]c2ccccc12)C(=O)N[C@H](CC(C)C)C(=O)N[C@@H](Cc1c[nH]c2ccccc12)C(=O)N[C@@H](C(=O)N[C@@H](Cc1c[nH]c2ccccc12)C(=O)NCCO)[C@H](C)O)C(C)C)C(C)C)[C@H](C)O [compound 6873] (For-VGA[dL]A[dT]V[dV]W[dL]W[dL]W[dT]W-NHCH2CH2OH)", "%", 100),
    ("CNC(=O)C[C@@H](NC(=O)[C@@H](NC(=O)[C@H](NC(=O)[C@H](C)NC(=O)[C@@H](CC(C)C)NC(=O)[C@H](C)NC(=O)CNC(=O)[C@@H](NC=O)C(C)C)C(C)C)C(C)C)C(=O)N[C@@H](Cc1c[nH]c2ccccc12)C(=O)N[C@H](CC(C)C)C(=O)N[C@@H](Cc1c[nH]c2ccccc12)C(=O)N[C@H](CC(C)C)C(=O)N[C@@H](Cc1c[nH]c2ccccc12)C(=O)N[C@H](CC(C)C)C(=O)N[C@@H](Cc1c[nH]c2ccccc12)C(=O)NCCO [compound 4143] (For-VGA[dL]A[dV]V[dD](NHMe)W[dL]W[dL]W[dL]W-NHCH2CH2OH)", "%", 100),
    ("CC(C)C[C@@H](NC(=O)[C@H](C)NC(=O)CNC(=O)[C@@H](NC=O)C(C)C)C(=O)N[C@@H](C)C(=O)N[C@H](CC(C)C)C(=O)N[C@H](C(=O)N[C@@H](C(=O)N[C@@H](Cc1c[nH]c2ccccc12)C(=O)N[C@H](CC(C)C)C(=O)N[C@@H](Cc1c[nH]c2ccccc12)C(=O)N[C@@H](C(=O)N[C@@H](Cc1c[nH]c2ccccc12)C(=O)N[C@H](CC(C)C)C(=O)N[C@@H](Cc1c[nH]c2ccccc12)C(=O)NCCO)C(C)C)C(C)C)C(C)C [compound 11305] (For-VGA[dL]A[dL]V[dV]W[dL]W[dV]W[dL]W-NHCH2CH2OH)", "%", 15.5),
]

# input for lookup
Recorded result, CC(C)C[C@@H](NC(=O)[C@H](C)NC(=O)[C@H](NC(=O)[C@H](C)NC(=O)CNC(=O)[C@@H](NC=O)C(C)C)C(C)C)C(=O)N[C@H](C(=O)N[C@@H](C(=O)N[C@@H](Cc1c[nH]c2ccccc12)C(=O)N[C@H](CC(C)C)C(=O)N[C@@H](Cc1c[nH]c2ccccc12)C(=O)N[C@H](CC(C)C)C(=O)N[C@@H](Cc1c[nH]c2ccccc12)C(=O)N[C@@H](C(=O)N[C@@H](Cc1c[nH]c2ccccc12)C(=O)NCCO)C(C)C)[C@H](C)O)C(C)C [compound 6160] (For-VGA[dV]A[dL]V[dT]W[dL]W[dL]W[dV]W-NHCH2CH2OH) , viability: 70.3

###

Tested on: P388 mouse leukemia cells
Conditions: 92 h
Where a SMILES comes first, the peptide text is derived from it. [ ]: non-standard residue; d: D form. The star is where a group is joined. NHCH2CH2OH = OCCN*; For = O=C*
metric name: cell viability/% (%)
Kindly provide the numeric value in % only, without the unit symbol.

// returns cell viability/% for CC(C)C[C@@H](NC(=O)[C@H](Cc1c[nH]c2ccccc12)NC(=O)[C@H](NC(=O)[C@@H](NC(=O)[C@H](NC(=O)[C@H](C)NC(=O)[C@H](NC(=O)[C@H](C)NC(=O)CNC(=O)[C@@H](NC=O)C(C)C)C(C)C)C(C)C)C(C)C)C(C)C)C(=O)N[C@@H](Cc1c[nH]c2ccccc12)C(=O)N[C@@H](C(=O)N[C@@H](Cc1c[nH]c2ccccc12)C(=O)N[C@@H](C(=O)N[C@@H](Cc1c[nH]c2ccccc12)C(=O)NCCO)C(C)C)C(C)C [compound 5570] (For-VGA[dV]A[dV]V[dV]W[dL]W[dV]W[dV]W-NHCH2CH2OH) with P388 mouse leukemia cells; value = 96.8

###

Test system: Streptococcus pneumoniae NBRC 102642
Settings: NBRC 102642
Where a SMILES comes first, the peptide text is derived from it. [ ]: non-standard residue; d: D form. The star is where a group is joined. NHCH2CH2OH = OCCN*; For = O=C*
Entries and their Antibacterial activity MIC values follow.
Answer format: value, then unit.

# compound, Antibacterial activity MIC
measured = [
    ("CC(C)C[C@@H](NC(=O)[C@H](C)NC(=O)CNC(=O)[C@@H](NC=O)C(C)C)C(=O)N[C@@H](C)C(=O)N[C@@H](C(=O)N[C@H](C(=O)N[C@@H](C(=O)N[C@@H](Cc1c[nH]c2ccccc12)C(=O)N[C@H](CC(C)C)C(=O)N[C@@H](Cc1c[nH]c2ccccc12)C(=O)N[C@H](CC(C)C)C(=O)N[C@@H](Cc1c[nH]c2ccccc12)C(=O)N[C@H](CC(C)C)C(=O)N[C@@H](Cc1c[nH]c2ccccc12)C(=O)NCCO)[C@H](C)O)C(C)C)C(C)C [B13] (For-VGA[dL]A[dV]V[dT]W[dL]W[dL]W[dL]W-NHCH2CH2OH)", "0.033 µM"),
]

Recorded result, CC(C)C[C@@H](NC(=O)[C@H](Cc1c[nH]c2ccccc12)NC(=O)[C@@H](CC(C)C)NC(=O)[C@H](Cc1c[nH]c2ccccc12)NC(=O)[C@@H](CC(C)C)NC(=O)[C@H](Cc1c[nH]c2ccccc12)NC(=O)[C@H](NC(=O)[C@@H](NC(=O)[C@H](NC(=O)[C@H](C)NC(=O)[C@H](NC(=O)[C@H](C)NC(=O)CNC(=O)[C@@H](NC=O)C(C)C)C(C)C)C(C)C)C(C)C)C(C)C)C(=O)N[C@@H](Cc1c[nH]c2ccccc12)C(=O)NCCO [A1] (For-VGA[dV]A[dV]V[dV]W[dL]W[dL]W[dL]W-NHCH2CH2OH) , Antibacterial activity MIC: 0.001 µM

Recorded result, CC(C)C[C@@H](NC(=O)[C@H](C)NC(=O)CNC(=O)[C@@H](NC=O)C(C)C)C(=O)N[C@@H](C)C(=O)N[C@H](CC(C)C)C(=O)N[C@H](C(=O)N[C@H](CC(C)C)C(=O)N[C@@H](Cc1c[nH]c2ccccc12)C(=O)N[C@H](CC(C)C)C(=O)N[C@@H](Cc1c[nH]c2ccccc12)C(=O)N[C@@H](C(=O)N[C@@H](Cc1c[nH]c2ccccc12)C(=O)N[C@@H](C(=O)N[C@@H](Cc1c[nH]c2ccccc12)C(=O)NCCO)C(C)C)[C@H](C)O)C(C)C [B11] (For-VGA[dL]A[dL]V[dL]W[dL]W[dT]W[dV]W-NHCH2CH2OH) , Antibacterial activity MIC: 0.017 µM

Recorded result, CC(C)C[C@@H](NC(=O)[C@H](C)NC(=O)CNC(=O)[C@@H](NC=O)C(C)C)C(=O)N[C@@H](C)C(=O)N[C@@H](C(=O)N[C@H](C(=O)N[C@@H](C(=O)N[C@@H](Cc1c[nH]c2ccccc12)C(=O)N[C@H](CC(C)C)C(=O)N[C@@H](Cc1c[nH]c2ccccc12)C(=O)N[C@H](CC(C)C)C(=O)N[C@@H](Cc1c[nH]c2ccccc12)C(=O)N[C@H](CC(C)C)C(=O)N[C@@H](Cc1c[nH]c2ccccc12)C(=O)NCCO)C(C)C)C(C)C)C(C)C [compound 1, Gramicidin A] (For-VGA[dL]A[dV]V[dV]W[dL]W[dL]W[dL]W-NHCH2CH2OH) , Antibacterial activity MIC: 0.0083 µM

###

System: Streptococcus pyogenes SSI-9
Assay: Antibacterial activity assay of bead-derived peptides (three concentrations)
Format: cell-based
Parameters: key: +++: inhibition by the 640-fold diluted peptide solution; ++: inhibition by the 160-fold diluted solution; +: inhibition by the 40-fold diluted solution; -: no inhibition
Conditions: S. pyogenes, bead-derived peptide solution, three concentrations
Where a SMILES comes first, the peptide text is derived from it. [ ]: non-standard residue; d: D form. The star is where a group is joined. NHCH2CH2OH = OCCN*; For = O=C*

# compound, target under test, antibacterial activity
rows = [
    ("CNC(=O)C[C@@H](NC(=O)[C@@H](NC(=O)[C@@H](CC(C)C)NC(=O)[C@H](C)NC(=O)[C@@H](CC(C)C)NC(=O)[C@H](C)NC(=O)CNC(=O)[C@@H](NC=O)C(C)C)C(C)C)C(=O)N[C@@H](Cc1c[nH]c2ccccc12)C(=O)N[C@H](CC(C)C)C(=O)N[C@@H](Cc1c[nH]c2ccccc12)C(=O)N[C@H](CC(C)C)C(=O)N[C@@H](Cc1c[nH]c2ccccc12)C(=O)N[C@@H](C(=O)N[C@@H](Cc1c[nH]c2ccccc12)C(=O)NCCO)[C@H](C)O [compound 5746] (For-VGA[dL]A[dL]V[dD](NHMe)W[dL]W[dL]W[dT]W-NHCH2CH2OH)", "Streptococcus pyogenes SSI-9", "-"),
    ("CC(C)C[C@@H](NC(=O)[C@H](C)NC(=O)CNC(=O)[C@@H](NC=O)C(C)C)C(=O)N[C@@H](C)C(=O)N[C@@H](C(=O)N[C@H](C(=O)N[C@@H](C(=O)N[C@@H](Cc1c[nH]c2ccccc12)C(=O)N[C@H](CC(C)C)C(=O)N[C@@H](Cc1c[nH]c2ccccc12)C(=O)N[C@H](CC(C)C)C(=O)N[C@@H](Cc1c[nH]c2ccccc12)C(=O)N[C@@H](C(=O)N[C@@H](Cc1c[nH]c2ccccc12)C(=O)NCCO)C(C)C)C(C)C)C(C)C)C(C)C [compound 6345] (For-VGA[dL]A[dV]V[dV]W[dL]W[dL]W[dV]W-NHCH2CH2OH)", "Streptococcus pyogenes SSI-9", "++"),
]
